B1: LINE1-full (parent)
chain: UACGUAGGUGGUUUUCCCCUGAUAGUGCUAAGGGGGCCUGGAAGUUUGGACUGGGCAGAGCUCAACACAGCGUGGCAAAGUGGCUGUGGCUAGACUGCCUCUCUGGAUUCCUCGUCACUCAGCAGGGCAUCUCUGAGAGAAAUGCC

Variants of: B1
Test: self-cleavage, relative activity (ratio to wild type); higher = more cleavage; in vitro, sequencing; the parent is a self-cleaving ribozyme

VARIANT KEY: A65G G127U
self-cleavage: 0.04

VARIANT KEY: A64G G72U
self-cleavage: 0.12

VARIANT KEY: U20C G72U
self-cleavage: 0.9

VARIANT KEY: C118U U143A
self-cleavage: 1.31

VARIANT KEY: A22U G144A
self-cleavage: 1.08

VARIANT KEY: C103U A140U
self-cleavage: 1.72

VARIANT KEY: U73A A124G
self-cleavage: 1.03

VARIANT KEY: U102C U143A
self-cleavage: 1.36

VARIANT KEY: U13A U132G
self-cleavage: 0.6

VARIANT KEY: U9A A57G
self-cleavage: 0.98

VARIANT KEY: U20C U85A
self-cleavage: 0.11
